Would you kindly list Octet signal (200 nM peptide) for each of these binders?
# system name: T1, Ab-1
# T1 construct: also called anti-CD28 scFv harbored in Ab-1
# T1 sequence (heavy, as listed by the source, chain 1 of 2): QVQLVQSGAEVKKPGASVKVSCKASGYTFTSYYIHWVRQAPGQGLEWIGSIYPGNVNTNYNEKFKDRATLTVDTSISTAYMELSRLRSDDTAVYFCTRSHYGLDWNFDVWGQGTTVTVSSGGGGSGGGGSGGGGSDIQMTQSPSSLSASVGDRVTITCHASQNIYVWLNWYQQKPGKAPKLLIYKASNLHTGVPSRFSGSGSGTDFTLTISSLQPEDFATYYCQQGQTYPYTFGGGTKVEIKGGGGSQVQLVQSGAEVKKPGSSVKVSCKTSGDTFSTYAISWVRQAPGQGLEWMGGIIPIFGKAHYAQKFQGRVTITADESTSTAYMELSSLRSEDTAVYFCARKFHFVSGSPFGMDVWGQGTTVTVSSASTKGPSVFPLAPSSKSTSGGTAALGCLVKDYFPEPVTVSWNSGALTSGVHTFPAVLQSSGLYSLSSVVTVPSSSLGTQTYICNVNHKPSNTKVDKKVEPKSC
# T1 sequence (light, as listed by the source, chain 2 of 2): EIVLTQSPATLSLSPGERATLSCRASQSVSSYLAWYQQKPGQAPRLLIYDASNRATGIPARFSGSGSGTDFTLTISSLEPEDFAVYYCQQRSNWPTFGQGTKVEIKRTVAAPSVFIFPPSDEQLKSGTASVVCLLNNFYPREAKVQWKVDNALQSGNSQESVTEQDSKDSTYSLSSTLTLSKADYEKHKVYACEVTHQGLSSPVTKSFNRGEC
# assay summary: BLI (Octet), 200 nM peptide, 100 nM Ab-1
No end group written: not given here.
Just the number.

Ask: Using the record for LDWCPRHLWALCFN (cysteine pairing not given here; also: biotinylated, site not given here) [Peptide-22] , report its Octet signal (200 nM peptide).
Result: 0.697

Ask: And what about the binder VPWCQIISGLECLT (cysteine pairing not given here; also: biotinylated, site not given here) [Peptide-25] ?
Result: 0.166

Ask: And what about the binder MDWCPRDLWVHCFA (cysteine pairing not given here; also: biotinylated, site not given here) [Peptide-1] ?
Result: 1.8

Ask: And what about the binder IDWCPLHLWHECYH (cysteine pairing not given here; also: biotinylated, site not given here) [Peptide-24] ?
Result: 0.838

Ask: And what about the binder IYWCPIDRWNDCYN (cysteine pairing not given here; also: biotinylated, site not given here) [Peptide-26] ?
Result: 0.705

Ask: And what about the binder IDWCPRYLWDECYN (cysteine pairing not given here; also: biotinylated, site not given here) [Peptide-23] ?
Result: 1.52

Provenance of the data: patent US20260274955A1
